subject_of_test: T1, human GIP receptor (human) (UniProt P48546)
T1 sequence (looked up): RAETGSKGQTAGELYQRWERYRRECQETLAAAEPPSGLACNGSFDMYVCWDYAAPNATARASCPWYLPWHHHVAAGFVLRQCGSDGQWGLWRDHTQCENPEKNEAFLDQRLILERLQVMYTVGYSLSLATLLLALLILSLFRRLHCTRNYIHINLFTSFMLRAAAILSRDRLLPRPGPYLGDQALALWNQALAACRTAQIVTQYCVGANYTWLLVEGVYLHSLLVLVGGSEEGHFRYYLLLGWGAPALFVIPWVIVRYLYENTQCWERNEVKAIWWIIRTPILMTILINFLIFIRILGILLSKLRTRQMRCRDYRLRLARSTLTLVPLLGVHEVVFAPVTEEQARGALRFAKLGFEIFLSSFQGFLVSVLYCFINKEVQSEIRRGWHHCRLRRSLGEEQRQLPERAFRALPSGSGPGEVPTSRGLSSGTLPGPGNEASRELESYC
method_notes: cell-based or functional assay
Starred links: 1 amine or outer side, 2 acyl side, 3 side chain; linkers in the order of their positions; H or OH if unused. Non-standard residues stand in square brackets, D forms with d. Groups on a side chain read outwards from the residue. No end group written: not given here. *: point of attachment. C20 diacid = O=C(O)CCCCCCCCCCCCCCCCCCC(=O)*; γGlu = O=C(O)[C@H](CCC(=O)[*:2])N[*:1]; AEEA = NCCOCCOCC(=O)O; Aib = CC(C)(N)C(=O)O
measured_property: Relative cAMP EC50 (nM)
Answers are plain numbers, in nM.

# count of solved cases: 2
YXQGTXTSDXXIXLDXKAAXEFIEXLIEGGPSSGAPPPSGGGE (synthetic construct; SITE 2: note = 2-Aminoisobutyric Acid; SITE 6: note = alpha-methyl-2-fluoro-L-phenylalanine; SITE 10: note = 3-(4-Pyridyl)-L-alanine; SITE 11: note = alpha-methyl-L-serine; SITE 13: note = alpha-methyl-leucine; SITE 16: note = L-ornithine; SITE 17: note = Lysine is chemically mo) [Example 747]; 0.00955
YXQGTFTSDFSXXLDKKAQXAFIEWLLEGGESSGEPPPSGE (synthetic construct; SITE 2: note = 2-Aminoisobutyric Acid; SITE 12: note = L-ornithine; SITE 13: note = alpha-methyl-leucine; SITE 17: note = Lysine is chemically modified through conjugation of the epsilon-amino group of the Lysine side chain with (2-[2-(2-Amino-ethoxy)-ethoxy]-acetyl)-(gamma-Glu)) [Example 123]; 0.531

// moving on: another record for Relative cAMP EC50
Query: Specify Relative cAMP EC50 for Y[Aib]QGTFTSDYSKLLDKK([AEEA-γGlu-C20 diacid])AQ[Aib]AFVQWLIEGGPSSGEPPPSEG-NH2 [Example 316] and stop.
Response: 0.259
